# settings: cell viability/%
Where a SMILES comes first, the peptide text is derived from it. [ ]: non-standard residue; d: D form. The star is where a group is joined. NHCH2CH2OH = OCCN*; For = O=C*
Some compounds, each annotated with its measured viability.
I only need the number, in %, no unit after it.

# example entries with known answers
compound="CC(C)C[C@@H](NC(=O)[C@H](C)NC(=O)CNC(=O)[C@@H](NC=O)C(C)C)C(=O)N[C@@H](C)C(=O)N[C@H](CC(C)C)C(=O)N[C@H](C(=O)N[C@H](CC(C)C)C(=O)N[C@@H](Cc1c[nH]c2ccccc12)C(=O)N[C@@H](C(=O)N[C@@H](Cc1c[nH]c2ccccc12)C(=O)N[C@@H](C(=O)N[C@@H](Cc1c[nH]c2ccccc12)C(=O)N[C@H](CC(C)C)C(=O)N[C@@H](Cc1c[nH]c2ccccc12)C(=O)NCCO)C(C)C)[C@H](C)O)C(C)C [compound 196] (For-VGA[dL]A[dL]V[dL]W[dT]W[dV]W[dL]W-NHCH2CH2OH)" uom=% numeric_readout=100
compound="CC(C)C[C@@H](NC(=O)[C@H](C)NC(=O)CNC(=O)[C@@H](NC=O)C(C)C)C(=O)N[C@@H](C)C(=O)N[C@H](CC(C)C)C(=O)N[C@H](C(=O)N[C@H](CC(C)C)C(=O)N[C@@H](Cc1c[nH]c2ccccc12)C(=O)N[C@H](CC(C)C)C(=O)N[C@@H](Cc1c[nH]c2ccccc12)C(=O)N[C@H](CC(C)C)C(=O)N[C@@H](Cc1c[nH]c2ccccc12)C(=O)N[C@H](CC(C)C)C(=O)N[C@@H](Cc1c[nH]c2ccccc12)C(=O)NCCO)C(C)C [compound 2904] (For-VGA[dL]A[dL]V[dL]W[dL]W[dL]W[dL]W-NHCH2CH2OH)" uom=% numeric_readout=12.5
compound="CC(C)C[C@@H](NC(=O)[C@H](Cc1c[nH]c2ccccc12)NC(=O)[C@H](NC(=O)[C@H](Cc1c[nH]c2ccccc12)NC(=O)[C@@H](CC(C)C)NC(=O)[C@H](Cc1c[nH]c2ccccc12)NC(=O)[C@H](NC(=O)[C@@H](NC(=O)[C@H](NC(=O)[C@H](C)NC(=O)[C@H](NC(=O)[C@H](C)NC(=O)CNC(=O)[C@@H](NC=O)C(C)C)C(C)C)C(C)C)C(C)C)[C@H](C)O)C(C)C)C(=O)N[C@@H](Cc1c[nH]c2ccccc12)C(=O)NCCO [compound 2829] (For-VGA[dV]A[dV]V[dT]W[dL]W[dV]W[dL]W-NHCH2CH2OH)" uom=% numeric_readout=100
compound="CC(C)C[C@@H](NC(=O)[C@H](C)NC(=O)CNC(=O)[C@@H](NC=O)C(C)C)C(=O)N[C@@H](C)C(=O)N[C@@H](C(=O)N[C@H](C(=O)N[C@H](CC(C)C)C(=O)N[C@@H](Cc1c[nH]c2ccccc12)C(=O)N[C@@H](C(=O)N[C@@H](Cc1c[nH]c2ccccc12)C(=O)N[C@@H](C(=O)N[C@@H](Cc1c[nH]c2ccccc12)C(=O)N[C@H](CC(C)C)C(=O)N[C@@H](Cc1c[nH]c2ccccc12)C(=O)NCCO)[C@H](C)O)C(C)C)C(C)C)C(C)C [compound 201] (For-VGA[dL]A[dV]V[dL]W[dV]W[dT]W[dL]W-NHCH2CH2OH)" uom=% numeric_readout=100
compound="CC(C)C[C@@H](NC(=O)[C@H](C)NC(=O)[C@H](NC(=O)[C@H](C)NC(=O)CNC(=O)[C@@H](NC=O)C(C)C)C(C)C)C(=O)N[C@H](C(=O)N[C@@H](C(=O)N[C@@H](Cc1c[nH]c2ccccc12)C(=O)N[C@@H](C(=O)N[C@@H](Cc1c[nH]c2ccccc12)C(=O)N[C@H](CC(C)C)C(=O)N[C@@H](Cc1c[nH]c2ccccc12)C(=O)N[C@H](CC(C)C)C(=O)N[C@@H](Cc1c[nH]c2ccccc12)C(=O)NCCO)C(C)C)C(C)C)C(C)C [compound 1406] (For-VGA[dV]A[dL]V[dV]W[dV]W[dL]W[dL]W-NHCH2CH2OH)" uom=% numeric_readout=91.1
compound="CNC(=O)C[C@@H](NC(=O)[C@H](Cc1c[nH]c2ccccc12)NC(=O)[C@@H](CC(C)C)NC(=O)[C@H](Cc1c[nH]c2ccccc12)NC(=O)[C@@H](CC(C)C)NC(=O)[C@H](Cc1c[nH]c2ccccc12)NC(=O)[C@@H](CC(C)C)NC(=O)[C@@H](NC(=O)[C@@H](CC(C)C)NC(=O)[C@H](C)NC(=O)[C@@H](CC(C)C)NC(=O)[C@H](C)NC(=O)CNC(=O)[C@@H](NC=O)C(C)C)C(C)C)C(=O)N[C@@H](Cc1c[nH]c2ccccc12)C(=O)NCCO [compound 300] (For-VGA[dL]A[dL]V[dL]W[dL]W[dL]W[dD](NHMe)W-NHCH2CH2OH)" uom=% numeric_readout=100

Query: Name the reported viability value associated with the compound CC(C)C[C@@H](NC(=O)[C@H](C)NC(=O)CNC(=O)[C@@H](NC=O)C(C)C)C(=O)N[C@@H](C)C(=O)N[C@@H](C(=O)N[C@H](C(=O)N[C@@H](C(=O)N[C@@H](Cc1c[nH]c2ccccc12)C(=O)N[C@@H](C(=O)N[C@@H](Cc1c[nH]c2ccccc12)C(=O)N[C@H](CC(C)C)C(=O)N[C@@H](Cc1c[nH]c2ccccc12)C(=O)N[C@H](CC(C)C)C(=O)N[C@@H](Cc1c[nH]c2ccccc12)C(=O)NCCO)C(C)C)C(C)C)C(C)C)[C@H](C)O [compound 8755] (For-VGA[dL]A[dT]V[dV]W[dV]W[dL]W[dL]W-NHCH2CH2OH)
Reply: 67.3

Query: viability lookup needed for CC(C)C[C@@H](NC(=O)[C@H](Cc1c[nH]c2ccccc12)NC(=O)[C@H](NC(=O)[C@H](Cc1c[nH]c2ccccc12)NC(=O)[C@@H](CC(C)C)NC(=O)[C@H](Cc1c[nH]c2ccccc12)NC(=O)[C@H](NC(=O)[C@@H](NC(=O)[C@H](NC(=O)[C@H](C)NC(=O)[C@H](NC(=O)[C@H](C)NC(=O)CNC(=O)[C@@H](NC=O)C(C)C)C(C)C)[C@H](C)O)C(C)C)C(C)C)C(C)C)C(=O)N[C@@H](Cc1c[nH]c2ccccc12)C(=O)NCCO [compound 7912] (For-VGA[dV]A[dT]V[dV]W[dL]W[dV]W[dL]W-NHCH2CH2OH) , thanks.
Reply: 100

----------
# System: Streptococcus pyogenes SSI-9
# test name: Antibacterial activity assay of bead-derived peptides (three concentrations)
# Type: cell-based
# Parameters: key: +++: inhibition by the 640-fold diluted peptide solution; ++: inhibition by the 160-fold diluted solution; +: inhibition by the 40-fold diluted solution; -: no inhibition
# settings: S. pyogenes, bead-derived peptide solution, three concentrations
Where a SMILES comes first, the peptide text is derived from it. [ ]: non-standard residue; d: D form. The star is where a group is joined. NHCH2CH2OH = OCCN*; For = O=C*
endpoint label: antibacterial activity

molecule="CC(C)[C@H](NC=O)C(=O)NCC(=O)N[C@@H](C)C(=O)N[C@@H](C(=O)N[C@@H](C)C(=O)N[C@@H](C(=O)N[C@H](C(=O)N[C@@H](C(=O)N[C@@H](Cc1c[nH]c2ccccc12)C(=O)N[C@@H](C(=O)N[C@@H](Cc1c[nH]c2ccccc12)C(=O)N[C@@H](C(=O)N[C@@H](Cc1c[nH]c2ccccc12)C(=O)N[C@@H](C(=O)N[C@@H](Cc1c[nH]c2ccccc12)C(=O)NCCO)C(C)C)C(C)C)C(C)C)C(C)C)C(C)C)C(C)C)C(C)C [compound 10276] (For-VGA[dV]A[dV]V[dV]W[dV]W[dV]W[dV]W-NHCH2CH2OH)" endpoint_label="antibacterial activity" result=+

----------
Entries annotated with measured viability
# settings: cell viability/%
Where a SMILES comes first, the peptide text is derived from it. [ ]: non-standard residue; d: D form. The star is where a group is joined. NHCH2CH2OH = OCCN*; For = O=C*
Give the value in % but do not write % after it.

compound="CC(C)C[C@@H](NC(=O)[C@H](C)NC(=O)CNC(=O)[C@@H](NC=O)C(C)C)C(=O)N[C@@H](C)C(=O)N[C@@H](C(=O)N[C@H](C(=O)N[C@@H](C(=O)N[C@@H](Cc1c[nH]c2ccccc12)C(=O)N[C@@H](C(=O)N[C@@H](Cc1c[nH]c2ccccc12)C(=O)N[C@@H](C(=O)N[C@@H](Cc1c[nH]c2ccccc12)C(=O)N[C@H](CC(C)C)C(=O)N[C@@H](Cc1c[nH]c2ccccc12)C(=O)NCCO)C(C)C)C(C)C)C(C)C)C(C)C)C(C)C [compound 5056] (For-VGA[dL]A[dV]V[dV]W[dV]W[dV]W[dL]W-NHCH2CH2OH)" numeric_readout=100

Query: Quick check: viability of CC(C)C[C@@H](NC(=O)[C@H](C)NC(=O)CNC(=O)[C@@H](NC=O)C(C)C)C(=O)N[C@@H](C)C(=O)N[C@@H](C(=O)N[C@H](C(=O)N[C@@H](C(=O)N[C@@H](Cc1c[nH]c2ccccc12)C(=O)N[C@H](CC(C)C)C(=O)N[C@@H](Cc1c[nH]c2ccccc12)C(=O)N[C@@H](C(=O)N[C@@H](Cc1c[nH]c2ccccc12)C(=O)N[C@@H](C(=O)N[C@@H](Cc1c[nH]c2ccccc12)C(=O)NCCO)C(C)C)C(C)C)C(C)C)C(C)C)C(C)C [compound 5587] (For-VGA[dL]A[dV]V[dV]W[dL]W[dV]W[dV]W-NHCH2CH2OH) ?
Reply: 85.3
